In this section, each of the compounds is paired with its reported RV50 (concentration needed to lower relative viability by 50%).
# System: HeLa Kyoto cells
# Protocol: Relative viability (HOE/PI) in HCHT screening
# Condition Set: with transporter 28; co-incubation (C)
Readout Name: RV50 (concentration needed to lower relative viability by 50%)

1) O=C(N[C@H]1CCS(=O)(=O)SC1)N[C@H]1CCS(=O)(=O)SC1	>50 µM
2) O=S1(=O)C=C[C@@H](O)CS1	100 µM
3) CC(C)(C)OC(=O)NCCNC(=O)O[C@H]1CSS(=O)(=O)C[C@H]1O	>50 µM
4) O=C(NCCCCCCNC(=O)O[C@H]1CSS(=O)(=O)C[C@H]1O)O[C@H]1CSS(=O)(=O)C[C@H]1O	>50 µM
5) O=C(NCCCCCCNC(=O)O[C@H]1CSS(=O)(=O)C[C@H]1OCc1ccccc1)O[C@H]1CSS(=O)(=O)C[C@H]1OCc1ccccc1	>5 µM
6) CC(C)(C)[Si](C)(C)OC1CS(=O)(=O)SCC1OC(=O)NCCCCCCNC(=O)OC1CSS(=O)(=O)CC1O[Si](C)(C)C(C)(C)C (stereo not shown)	>5 µM
7) O=C1O[C@H]2CSS(=O)(=O)C[C@H]2O1	> 50 µM

----------
Entries annotated with measured viability at 7 h, 50 µM
# Protocol: in vitro
# Condition Set: human
Readout Name: viability at 7 h, 50 µM (%)

1) O=C(N[C@H]1CCS(=O)(=O)SC1)N[C@H]1CCS(=O)(=O)SC1	96
2) CC(=O)O[C@H]1CSS(=O)(=O)C[C@H]1O	97
3) O=S1(=O)C[C@H](O)[C@H](O)CS1 (stereo in doubt)	81
4) O=S(O)CC(O)C(O)CSSCCSSCC(O)C(O)CS(=O)O (centres unmarked)	96
5) CC(C)(C)[Si](C)(C)O[C@@H]1CS(=O)(=O)SC[C@@H]1OC(=O)NCC[N+](C)(C)C	37

----------
Listing of recorded RV50 (concentration needed to lower relative viability by 50%) by entry.
# System: HeLa Kyoto cells
# Protocol: Relative viability (HOE/PI) in HCHT screening
# Condition Set: with transporter 31; co-incubation (C)
# Description: One advantage of HCHT imaging of cellular uptake compared to flow cytometry[38],[42],[43] is that it simultaneously gives information on toxicity and intracellular localization. […] Information on the intracellular localization of reporters can be quantified through segmentation of cellular compartments stained with specific markers.[52] Uptake inhibition was measured by the automated HCHT imaging used already to elaborate on cytosolic delivery. […]
Readout Name: RV50 (concentration needed to lower relative viability by 50%)

1. O=S(O)CC(O)C(O)CSSCCSSCC(O)C(O)CS(=O)O (centres unmarked)	>50 µM
2. O=C1O[C@H]2CSS(=O)(=O)C[C@H]2O1	>50 µM
3. CC(=O)O[C@H]1CSS(=O)(=O)C[C@H]1O	>50 µM
4. O=S1(=O)C=C[C@@H](O)CS1	>50 µM
5. O=C(N[C@H]1CCS(=O)(=O)SC1)N[C@H]1CCS(=O)(=O)SC1	>100 µM

----------
# Test system: HK cells, transporter 31
# Protocol: HCHT imaging: inhibition of cytosolic delivery of ETP transporter 31
# Format: cell-based, Human
# Condition Set: Homo sapiens, 1 h, read-out: MIC (concentration needed to reach 15% inhibition), transporter 31 10 μM; co-incubation (C); inhibitor 1 h
Readout Name: IC15

1) CC(C)(C)[Si](C)(C)O[C@@H]1CS(=O)(=O)SC[C@@H]1O [Compound 6]	< 1 µM
2) O=S1(=O)C=C[C@@H](O)CS1 [Compound 12]	< 1 µM
3) O=S1(=O)C[C@H](O)[C@@H](O)CS1 [Compound 15]	1.5 µM
4) CC(C)(C)OC(=O)NCCNC(=O)O[C@H]1CSS(=O)(=O)C[C@H]1O [Compound 34]	16 µM
5) CC(C)(C)[Si](C)(C)O[C@@H]1CS(=O)(=O)SC[C@@H]1OC(=O)NCC[N+](C)(C)C [Compound 38]	23 µM

----------
# Lookup of reported pIC50 keyed by entry
# System: HK cells, transporter 31
# Protocol: HCHT imaging: inhibition of cytosolic delivery of ETP transporter 31
# Assay type: cell-based, Human
# Condition Set: Homo sapiens, 1 h, read-out: IC50 (concentration needed to reach 50% inhibition), transporter 31 10 μM; co-incubation (C); inhibitor 1 h
# Experimental: Uptake inhibition was measured by the automated HCHT imaging used already to elaborate on cytosolic delivery. For inhibitor screening, HK cells in multiwell plates were incubated with increasing concentrations of inhibitors, followed by fluorescent transporters 28, 31, and 32 at a constant concentration. […] DMEM. […] The distribution of fluorescence stained cells was analyzed without fixing using an […]
pIC50: −log10 of the molar value.
Readout Name: pIC50

1. O=S1(=O)C[C@H](O)[C@H](O)CS1 (stereo in doubt)	4.46
2. O=S1(=O)C=C[C@@H](O)CS1	5.14
3. O=c1c2ccccc2[se]n1-c1ccccc1 [Compound 46, Ebselen, reference compound]	4.31
4. O=S(O)CC(O)C(O)CSSCC(O)C(O)CS(=O)O (stereo not drawn)	4.22
5. CC(C)(C)[Si](C)(C)O[C@@H]1CS(=O)(=O)SC[C@@H]1OC(=O)NCC[N+](C)(C)C	4.33
6. O=C(O)Cn1[se]c2ccccc2c1=O [Compound 45, reference compound]	5.10
7. O=S(O)CC(O)C(O)CSSCCSSCC(O)C(O)CS(=O)O (stereo not drawn)	4.30
8. O=C(N[C@H]1CCS(=O)(=O)SC1)N[C@H]1CCS(=O)(=O)SC1	4.29
9. O=S1(=O)C[C@H](O)[C@@H](O)CS1	4.66
10. CC(C)(C)[Si](C)(C)O[C@@H]1CS(=O)(=O)SC[C@@H]1O	5.30
11. CC(=O)O[C@H]1CSS(=O)(=O)C[C@H]1O	4.57

----------
# Target Of Assay: cathepsin L (Homo sapiens, UniProt P07711)
# Sequence (P07711 114-333, species assumed): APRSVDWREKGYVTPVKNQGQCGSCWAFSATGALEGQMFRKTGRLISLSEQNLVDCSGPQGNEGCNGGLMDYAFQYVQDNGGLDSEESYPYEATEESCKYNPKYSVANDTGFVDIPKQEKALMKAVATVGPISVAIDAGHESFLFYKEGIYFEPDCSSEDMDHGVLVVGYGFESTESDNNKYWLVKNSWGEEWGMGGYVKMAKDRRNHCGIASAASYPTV
# Protocol: Cathepsin L inhibition (preliminary, not shown)
# Format: biochemical
# Condition Set: 50 μM; preliminary results
Readout Name: inhibition of cathepsin L (in words)

1) O=S1(=O)C[C@H](O)[C@H](O)CS1 (stereo in doubt) [Compound 3]	not L
2) O=S1(=O)C=C[C@@H](O)CS1 [Compound 12]	inhibit only cathepsin B
3) CC(C)(C)OC(=O)NCCNC(=O)O[C@H]1CSS(=O)(=O)C[C@H]1O [Compound 34]	inhibit only cathepsin B
4) O=C(N[C@H]1CCS(=O)(=O)SC1)N[C@H]1CCS(=O)(=O)SC1 [Compound 35]	inhibit only cathepsin B

----------
Overview of recorded k^O, rate constant of ring opening (or equivalent for acyclic controls) for various compounds
# Protocol: Dynamic covalent ring opening with thiol 10, 1H NMR kinetics
# Type: physicochemical
# Condition Set: equimolar 10, rt; pD 2.7; 90% D2O; Na+ phosphate 180 mM; substrate 2 mM
Readout Name: k^O, rate constant of ring opening (or equivalent for acyclic controls) (M^–1 s^–1)

1. CC1(C)O[C@H]2CSS(=O)(=O)C[C@H]2O1	2.3
2. CSS(C)(=O)=O [Compound 14, reference compound]	0.52

----------
# Test system: HeLa Kyoto cells
# Protocol: Relative viability (HOE/PI) in HCHT screening
# Condition Set: with transporter 31; co-incubation (C)
Readout Name: RV50 (concentration needed to lower relative viability by 50%)

1. CC1(C)O[C@H]2CSS(=O)(=O)C[C@H]2O1	29 ± 6 µM
2. NCCNC(=O)O[C@H]1CSS(=O)(=O)C[C@H]1O	>50 µM
3. CC(C)(C)OC(=O)NCCNC(=O)O[C@H]1CSS(=O)(=O)C[C@H]1O	>100 µM
4. O=S(O)CC(O)C(O)CSSCC(O)C(O)CS(=O)O (centres unmarked)	>50 µM
5. O=c1c2ccccc2[se]n1-c1ccccc1 [Compound 46, Ebselen, reference compound]	>100 µM
6. O=S1(=O)C[C@H](O)[C@H](O)CS1 (stereo in doubt)	>1000 µM
7. O=S1(=O)C[C@H](O)[C@@H](O)CS1	>500 µM

----------
Recorded IC15 values for a group of molecules are listed next.
# System: HK cells, transporter 31
# Protocol: HCHT imaging: inhibition of cytosolic delivery of ETP transporter 31
# Format: cell-based, Human
# Condition Set: Homo sapiens, 1 h, read-out: MIC (concentration needed to reach 15% inhibition), transporter 31 10 μM; co-incubation (C); inhibitor 1 h
Readout Name: IC15 (µM)

1) NCCNC(=O)O[C@H]1CSS(=O)(=O)C[C@H]1O	14
2) O=C(N[C@H]1CCS(=O)(=O)SC1)N[C@H]1CCS(=O)(=O)SC1	9
3) O=S(O)CC(O)C(O)CSSCC(O)C(O)CS(=O)O (stereo not shown)	6.8
4) O=C(O)Cn1[se]c2ccccc2c1=O [Compound 45, reference compound]	2.2
5) O=S(O)CC(O)C(O)CSSCCSSCC(O)C(O)CS(=O)O (stereo not shown)	7.8
6) O=S1(=O)C[C@H](O)[C@H](O)CS1 (stereo in doubt)	3
7) CC(=O)O[C@H]1CSS(=O)(=O)C[C@H]1O	2.1
